target: cynomolgus IgE (recombinant chimaeric D12 variable region and cynomolgus IgE constant region) (cynomolgus monkey (constant region); …); experiment: cell-based or functional assay
Sequence (heavy, as listed by the source limits assumed, chain 1 of 2): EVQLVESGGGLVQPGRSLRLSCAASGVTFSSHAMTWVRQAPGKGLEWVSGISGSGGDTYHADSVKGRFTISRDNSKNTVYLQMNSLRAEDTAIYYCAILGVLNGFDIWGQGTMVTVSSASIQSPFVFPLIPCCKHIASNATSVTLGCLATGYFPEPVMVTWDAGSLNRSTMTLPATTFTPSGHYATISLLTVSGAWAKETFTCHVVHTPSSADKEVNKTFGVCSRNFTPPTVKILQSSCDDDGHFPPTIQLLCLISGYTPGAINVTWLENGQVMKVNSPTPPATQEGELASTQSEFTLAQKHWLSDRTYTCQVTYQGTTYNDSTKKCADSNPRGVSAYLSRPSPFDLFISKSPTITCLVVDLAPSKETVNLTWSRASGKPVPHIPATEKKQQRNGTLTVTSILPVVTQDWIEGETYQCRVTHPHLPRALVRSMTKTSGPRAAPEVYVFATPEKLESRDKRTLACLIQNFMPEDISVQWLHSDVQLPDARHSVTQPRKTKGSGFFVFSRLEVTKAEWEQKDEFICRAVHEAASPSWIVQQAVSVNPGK
Sequence (light, as listed by the source limits assumed, chain 2 of 2): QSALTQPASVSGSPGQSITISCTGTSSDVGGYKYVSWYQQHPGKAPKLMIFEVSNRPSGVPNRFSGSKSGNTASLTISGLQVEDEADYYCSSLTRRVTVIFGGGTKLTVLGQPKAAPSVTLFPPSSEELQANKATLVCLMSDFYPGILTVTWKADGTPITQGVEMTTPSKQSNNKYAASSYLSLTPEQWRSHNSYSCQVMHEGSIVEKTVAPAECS
measurement-label: RBL-ER51 calcium signalling IC50 (nM), Cynomolgus IgE, geomean
Just the number in nM, nothing appended.

Example results:
Antibody 8 IgG (antibody, V domains shown, Whole human IgG (section 1.4, IgG1)) VH: QVQLVQSGAEVKKPGATVKLSCKVYGYIFTDYNIYWVRQAPGKGLEWMGLIDPDNGETFYAEKFQGRATMTADTSSDRAYMELTSLTFEDTATYYCATVLGRWIKGGYDYWGRGTLVTVSS VL: QSVLTQPPSVSGAPGQRVTISCTGSSSNIGAGYDVHWYQQLPGTAPKLLIYDNFNRPSGVPDRFSGSKSGTSASLAIIGLQTEDEADYYCQSYDSPTHTSPFGTGTKLTVL
0.188
Antibody 16 IgG (antibody, V domains shown, Whole human IgG (section 1.4, IgG1)) VH: QVQLVQSGAEVKKPGATVKLSCKVYGYIFTDYNIYWVRQAPGKGLEWMGLIDPDNGETFYAEKFQGRATMTADTSSDRAYMELTSLTFEDTATYYCATVSLKSAKGGYDYWGRGTLVTVSS VL: QSVLTQPPSVSGAPGQRVTISCTGSSSNIGAGYDVHWYQQLPGTAPKLLIYDNFNRPSGVPDRFSGSKSGTSASLAIIGLQTEDEADYYCQSYDSRHHHAPFGTGTKLTVL
4.38

Next binder, RBL-ER51 calcium signalling IC50 (nM), Cynomolgus IgE, geomean to be filled in.
Data request: # return recorded RBL-ER51 calcium signalling IC50 (nM), Cynomolgus IgE, geomean for entry Antibody 4 IgG (antibody, V domains shown, Whole human IgG (section 1.4, IgG1)) VH: QVQLVQSGAEVKKPGATVKLSCKVYGYIFTDYNIYWVRQAPGKGLEWMGLIDPDNGETFYAEKFQGRATMTADTSSDRAYMELTSLTFEDTATYYCATVMGKWIKGGYDYWGRGTLVTVSS VL: QSVLTQPPSVSGAPGQRVTISCTGSSSNIGAGYDVHWYQQLPGTAPKLLIYDNFNRPSGVPDRFSGSKSGTSASLAIIGLQTEDEADYYCQSYDSRGGHSPFGTGTKLTVL
Data returned: 0.151

Reference source for all entries: patent US20140127212A1
